system: K4 kissing-loop RNA reporter; assay: apparent KD of K4 kissing-loop reporter; higher = weaker reporter binding; conditions: Eterna round: R107; input ligand: tryptophan 2.4 mM
Mark not fulfilled for apparent KD of K4 kissing-loop reporter values under 200 nM, and fulfilled for everything at or above.

INSERT INTO results (residue_codes, measured_target, class_assignment) VALUES
  ('GUCUGCGUCUCGGCCGCCACUCACUAGUGAUGUUAGUAAGGAGCGACUAGCGCAGUCCUGAAGAUGAGGACCGGGAGACGCAGGA [Exclusion Tryptophan B GF5]', 'K4 kissing-loop RNA reporter', 'fulfilled'),
  ('UAGUCCGGGUGAUGGUCAUCACGUGGCGGGCGAGGACCGGUACGGCCGCCACUCGACUUUGCAGUGAUGUUGCAAACCGGACAAU [Exclusion - Tryptophan A (Freestyle 22)]', 'K4 kissing-loop RNA reporter', 'fulfilled');

[Q] For this sequence, is measured apparent KD of K4 kissing-loop reporter 200 nM or higher? UUUAAACAUAGUGAUGUUAUGUAACAAUGACGAGGACCGGUACGGCCGCCACUCGAGAGAGAUAAUGAUAAAAUAAAUAAUUUUC [#09 K4 Tryptophan A Same State]
[A] not fulfilled

[Q] For this sequence, is measured apparent KD of K4 kissing-loop reporter 200 nM or higher? CCUAUCUCAUACGAUACCAGUCUACGAUAUUUUAUCGUUGCCAUCACCGAGUGAUGUUCGGACCCUUGGCAGCGUAUGGGAUAGG [Ex Theophylline B K4 5]
[A] fulfilled

[Q] For this sequence, is measured apparent KD of K4 kissing-loop reporter 200 nM or higher? AUUAUAAAGUCGGCCGCCACUGAGAGUAGUGAUGUUACUCUAUUCCUUUAGAUAUUAUAUUUUAUCAGGACCGGGACAUCAGAUU [JR_ExcTryptoB_Sub019]
[A] fulfilled

###

test system: MS2 coat protein; test: apparent KD of MS2 coat protein; designed switch direction (-1 OFF switch, 1 ON switch): -1; higher = weaker reporter binding; conditions: input ligand: none
# apparent KD of MS2 coat protein per record follows
Record the value in nM, omitting the unit from your answer.

INSERT INTO assay_data (residue_codes, quantity_unit, result_number) VALUES
  ('UCAAAGUCAGGAUAUACAUGAGGAUCACCCAUGUAAAAUUUUAAUUUAAUUUGAAGGUGUAGAAGGGACAAACU [Ex3 #34] (Eterna round: R97, puzzle: Exclusion 3)', 'nM', 38.8),
  ('UGUGUGUCAGGAUAUGUGUGUGUGUGUGAAAGCGCGCGCGCGCAGAAGGGACAUGAGGAUCACCCAUGUGCGCG [-35.3, -34.3 kcal, A 20%, 6bis-6] (Eterna round: R97, puzzle: Exclusion 4)', 'nM', 220),
  ('GUCGUGCAGCUUUGCUGUACGAGUACAUGAGGAUCACCCAUGUAGGAUAUGGUACGCUUUGCGUGCUAGAAGGAUAUGUGUAGG [salish99_ExNG3_r04_501] (Eterna round: R96, puzzle: Exclusion NG 3)', 'nM', 44.3),
  ('GAAAAGUAAGGAUAUGUCCACAGUGAGGAAACUCACUGUGGACAGAAGGUACAUGAGGAUCACCCAUGUUCCUC [ExDelusion 4 - Jieux - Exclusion 4] (Eterna round: R97, puzzle: Exclusion 4)', 'nM', 44.2),
  ('AAUUCACAUGAGGAUCACCCAUGUGAGGAUAUGGUUUCGCUGGCCGUAGCCAGUGGAACCAGAAGGCGCAUGAU [Mat - Exclusion 1 - JL Mod - D11] (Eterna round: R97, puzzle: Exclusion 1)', 'nM', 28.9),
  ('UUAUAACAUGAGGAUCACCCAUGUUAGGAUAUCAGGUACGAGCGCCGUGCUCAGGCCCUGAGAAGGAGCAUGGC [Eternabot (L1) Solution 36] (Eterna round: R97, puzzle: Exclusion 1)', 'nM', 18.6),
  ('UUUUUAUAUGAAGGAUAUACUUAACAUGAGGAUCACCCAUGUGGUGUUGUGAGUGAGUGAGUUUAGUAGAAGGUCAAUUAUUAU [JMF''s solution 15] (Eterna round: R96, puzzle: Exclusion NG 2)', 'nM', 271),
  ('GGUCAGACGGUAGGAUAUUCAUAUCGAGUGACCCUUUCAUAACAUGAGGAUCACCCAUGUCGGUGGGAGAAGGGCCGUACGGCG [salish99_ExNG02_R04_008] (Eterna round: R96, puzzle: Exclusion NG 2)', 'nM', 33.6);

Please turn your attention to the following entry.
The recorded apparent KD of MS2 coat protein for AGUUAUUCAGGAUAUGGUGUGUUAUACAUGAGGAUCACCCAUGUGGGUCAUGGUUAGGCCUCAGAAGGGAAUGUUA [salish99_ex5_r4_125] (Eterna round: R97, puzzle: Exclusion 5) is 1100

###

test system: MS2 coat protein; assay: apparent KD of MS2 coat protein; designed switch direction (-1 OFF switch, 1 ON switch): -1; higher = weaker reporter binding; conditions: input ligand: none
parameter: apparent KD of MS2 coat protein (nM)
Record the value in nM, omitting the unit from your answer.

INSERT INTO measurements (residue_codes, parameter, result_number) VALUES
  ('AAGCCCUGAGGAUAUCCCAACUCGCACAUGAGGAUCACCCAUGUCCUCCUCCGGGCUUCGGGAGAAGGCAGGUCUC [Megrez-7.8] (Eterna round: R97, puzzle: Exclusion 5)', 'apparent KD of MS2 coat protein', 25.7);

Record for AUAAGUGAUAAGGAUAUUACUAGCCUCGGCUAGUGAGAAGGUAUCACAUGAGGAUCACCCAUGUGUUCCAAUAA [Ex6/7-B2] (Eterna round: R97, puzzle: Exclusion 6) under target or system MS2 coat protein: apparent KD of MS2 coat protein reported as 119

Record for ACAAUGUCAGGAUAUGAACAGCGCGGUCACAAGGAUUGCUUUCAGAAGGGACAUGAGGAUCACCCAUGUCGAUA [Eternabot (L1) Solution 91] (Eterna round: R97, puzzle: Exclusion 4) under target or system MS2 coat protein: apparent KD of MS2 coat protein reported as 20

Record for GUUAAUUGUCACAUGGGUGACAUGAGGAUCACCCAUGUCACAAGCUUUUUGCUCGUCUUAUAAUUAACCCAUGUGAC [Stov1/12-A2] (Eterna round: R97, puzzle: Sensor, turn-off variant 1) under target or system MS2 coat protein: apparent KD of MS2 coat protein reported as 13.9

Record for GGUAUAUGAGGAUAUAGAUUCCUCGACAUGAGGAUCACCCAUGUAAGAUUGGGCCUAGAACUAGAAGGCGUGGCUU [Eternabot (L1) Solution 77] (Eterna round: R97, puzzle: Exclusion 5) under target or system MS2 coat protein: apparent KD of MS2 coat protein reported as 128

Record for ACGAUGAUCGAAAAGUGUAAACUGACAUGAGGAUCACCCAUGUAGGAUAUGGCUACGAAAAGUAGUCAGAAGGGCAUGUCAUCA [Omei Exc(NG) 3 Av11] (Eterna round: R96, puzzle: Exclusion NG 3) under target or system MS2 coat protein: apparent KD of MS2 coat protein reported as 47.9

Record for CUGAGCUGACGGAGAUCCAACAUGAGGAUCACCCAUGUCUCAAAAGCUUUUUGCUCGUCUUAUCCUCCUCAGUUCAC [Mat - Sensor, turn-off var - Eli Mod - D55] (Eterna round: R97, puzzle: Sensor, turn-off variant 1) under target or system MS2 coat protein: apparent KD of MS2 coat protein reported as 22.6

Record for AAGAAAGACGAAGGAUAUUCAGGCGCCGAAGUAGAAGAAGGUCGUCCGGGUGUCCUAAAACUUGAGGAUCACCCAAGUAGAAGA [Mutated MS2 EX1.2] (Eterna round: R96, puzzle: Exclusion NG 1) under target or system MS2 coat protein: apparent KD of MS2 coat protein reported as 25.5

Record for AAUGGUAAAGUCAGGAUAUACGUACGUCGUUCUAGGUAGAAGGGACAUGAGGAUCACCCAUGUAUGAUAGUAAA [Ex4 #34] (Eterna round: R97, puzzle: Brourd's mod of Exclusion 4) under target or system MS2 coat protein: apparent KD of MS2 coat protein reported as 32.9

###

# apparent KD of K4 kissing-loop reporter per record follows
test system: K4 kissing-loop RNA reporter; experiment: apparent KD of K4 kissing-loop reporter; higher = weaker reporter binding; details: Eterna round: R107; input ligand: none;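 note: bound reporter read as fluorescence of individual clusters on recovered sequencing chips by microscopy, with normalized cluster intensities fitted with a binding model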
Record the value in nM, omitting the unit from your answer.

INSERT INTO assay_data (residue_codes, result_number) VALUES
  ('AACGCUUGAAUAACAAGCGAAAUAAAUUCGCGAGGACCGGUACGGCCGCCACUCGCUAACUGCGAGUGAUGUUCGAUAAUAAAAU [Mat - Mod of OpenEnded 3 - D15]', 136),
  ('AAUAAAAUCACGGCCGCCACUGAUACUAAUAUUAGCAGUGAUGUUGCUAUGUAUAAUUUAUUAAACAGGACCGGGUGAAUAUUUA [JR_ExcTryptoB_Sub015]', 126);

The recorded apparent KD of K4 kissing-loop reporter for GAUUCUGUUCGAAAGAACGGAAUCUCGGAAGGAGCGAGAGAAAUCUCAGGUAGGUCGCCGAAUUUUUGAUAGUGAUGUUAUCAUU [Arginine A K4 3] is 441

Origin of the recorded values: the supplement of paper PMC9170038
